NanoBRET Abs IC50 values by entry
Study System: T1, B-cat-Halo (beta-catenin HaloTag NanoBRET construct expressed in HEK293 cells) (UniProt P35222 1-781, HaloTag NanoBRET 618 Ligand bound to the HaloTag)
T1 sequence (looked up): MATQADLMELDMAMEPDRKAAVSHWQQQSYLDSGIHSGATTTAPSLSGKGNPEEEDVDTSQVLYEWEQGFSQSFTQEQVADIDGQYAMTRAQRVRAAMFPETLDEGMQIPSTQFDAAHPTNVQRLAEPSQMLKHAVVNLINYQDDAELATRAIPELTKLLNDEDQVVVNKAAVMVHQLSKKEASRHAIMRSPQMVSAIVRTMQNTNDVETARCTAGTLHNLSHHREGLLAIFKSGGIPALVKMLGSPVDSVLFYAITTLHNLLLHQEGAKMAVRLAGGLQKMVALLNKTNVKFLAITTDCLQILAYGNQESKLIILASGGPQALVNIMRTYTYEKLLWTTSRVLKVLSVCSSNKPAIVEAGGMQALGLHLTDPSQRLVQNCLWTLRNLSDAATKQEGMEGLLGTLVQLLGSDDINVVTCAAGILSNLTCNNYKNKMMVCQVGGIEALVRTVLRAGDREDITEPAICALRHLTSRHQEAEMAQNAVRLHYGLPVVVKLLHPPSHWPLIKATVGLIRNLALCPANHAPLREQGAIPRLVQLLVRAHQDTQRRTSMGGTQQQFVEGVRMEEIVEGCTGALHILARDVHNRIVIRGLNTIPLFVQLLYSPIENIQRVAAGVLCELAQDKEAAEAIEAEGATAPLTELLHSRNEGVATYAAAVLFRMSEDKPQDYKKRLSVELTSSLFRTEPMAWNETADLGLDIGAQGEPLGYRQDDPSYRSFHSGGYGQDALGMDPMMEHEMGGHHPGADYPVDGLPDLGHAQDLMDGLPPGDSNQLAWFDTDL
Measurement Notes: cell-based or functional assay
Starred links: 1 amine or outer side, 2 acyl side, 3 side chain; linkers in the order of their positions; H or OH if unused. Positions of bridges follow the written chain, without caps; N, C: chain ends. Non-standard residues stand in square brackets, D forms with d. Primed or numbered codes have the meaning given here. PyrS2″ = (S)-3-amino-1-((pent-4-en-1-yloxy)carbonyl)pyrrolidine-3-carboxylic acid (stapling residue), C=CCCCOC(=O)N1CC[C@@](N[*:1])(C(=O)[*:2])C1; B5(5) = 2,2-bis(4-pentenyl)glycine, 2-amino-2-(pent-4-en-1-yl)hept-6-enoic acid (stitching residue), C=CCCCC(CCCC=C)(N[*:1])C(=O)[*:2]; PyrS2 = (S)-3-amino-1-((pent-4-en-1-yloxy)carbonyl)pyrrolidine-3-carboxylic acid, C=CCCCOC(=O)N1CC[C@@](N[*:1])(C(=O)[*:2])C1; B5(27) = 2-amino-2-(pent-4-en-1-yl)hept-6-enoic acid (two alkene side-chain arms), C=CCCCC(CCCC=C)(N[*:1])C(=O)[*:2]; Bta = N[C@@H](Cc1csc2ccccc12)C(=O)O; αAllylPro = C=CC[C@@]1(C(=O)O)CCCN1; 3Thi = N[C@@H](Cc1ccsc1)C(=O)O; S8 = C=CCCCCCC[C@](C)(N)C(=O)O; PyrS2(4) = not defined here; hSer = N[C@@H](CCO)C(=O)O; Nle = CCCC[C@H](N)C(=O)O
Answer format: numeric, µM implied, no suffix.

As a guide, the following entries are already answered.
{"Binder": "Ac-[αAllylPro]D[Nle][B5(5)]DEAAFL[S8]F[Bta]Q-NH2 (staple 1-4, 4-11) [I-1523: Ac-PL3-Asp-nLeu-B5-Asp-Glu-Ala-Ala-Phe-Leu-S8-Phe-BztA-Gln-NH2]", "NanoBRET Abs IC50 [µM]": 8}
{"Binder": "Ac-[αAllylPro]DS[B5(5)]DEAAFL[S8]F[Bta]Q-NH2 (staple 1-4, 4-11, Stapled peptide composition; Staple olefins are retained) [I-1528: Ac-PL3-Asp-Ser-B5-Asp-Glu-Ala-Ala-Phe-Leu-S8-Phe-BztA-Gln-NH2]", "NanoBRET Abs IC50 [µM]": 31.4}
{"Binder": "Ac-[αAllylPro]DN[B5(5)]DDAAFL[PyrS2″][3Thi][Bta][hSer]-NH2 (staple 1-4, 4-11) [I-1518: Ac-PL3-Asp-Asn-B5-Asp-Asp-Ala-Ala-Phe-Leu-PyrS2-3Thi-BztA-Hse-NH2]", "NanoBRET Abs IC50 [µM]": 24.2}
{"Binder": "Ac-[αAllylPro]DF[B5(5)]DDAAFL[PyrS2(4)][3Thi][Bta]Q-NH2 (staple 1-4, 4-11; not fully specified; printed as I-1509: Ac-PL3-Asp-Phe-B5-Asp-Asp-Ala-Ala-Phe-Leu-PyrS2-3Thi-BztA-Gln-NH2; reading uncertain) [I-1509: Ac-PL3-Asp-Phe-B5-Asp-Asp-Ala-Ala-Phe-Leu-PyrS2-3Thi-BztA-Gln-NH2]", "NanoBRET Abs IC50 [µM]": 24.5}

Shifting focus to the binder that follows.
INPUT: Find the measured NanoBRET Abs IC50 of Ac-[αAllylPro]DF[B5(27)]DDAAFL[PyrS2][3Thi][Bta][hSer]-NH2 (staple 1-4, 4-11) [I-1510: Ac-PL3-Asp-Phe-B5-Asp-Asp-Ala-Ala-Phe-Leu-PyrS2-3Thi-BztA-Hse-NH2] and report it.
OUTPUT: 31.8
